# studySystem: T1, human 5T4-His protein (human, UniProt Q13641 32-355)
# T1 construct: also called recombinant 5T4 protein (human 5T4-his tag); human 5T4 protein; not shown: His tag
# T1 sequence (looked up): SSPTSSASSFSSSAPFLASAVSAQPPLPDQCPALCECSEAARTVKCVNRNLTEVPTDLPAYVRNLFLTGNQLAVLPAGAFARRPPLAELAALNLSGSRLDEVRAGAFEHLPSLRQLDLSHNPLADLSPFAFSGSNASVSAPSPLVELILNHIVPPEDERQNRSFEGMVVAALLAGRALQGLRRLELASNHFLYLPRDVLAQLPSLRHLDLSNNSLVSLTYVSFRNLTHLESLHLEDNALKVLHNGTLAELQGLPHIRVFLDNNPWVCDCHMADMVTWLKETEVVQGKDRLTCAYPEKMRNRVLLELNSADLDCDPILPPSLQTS
# assayText: SPR Biacore, Protein A capture
measuredQuantity: koff

Prompt: Look up koff: 393E9_hVH5_hVL4 (antibody, V domains shown, humanized) VH: EVQLVESGGGLVQPGRSLRLSCTASGFTFTDYYMSWVRQAPGKGLEWVGFIRNKGNGYTTENSASVKGRFTISRDNSKSILYLQMNSLKTEDTAVYYCARYRGNPHYAMDYWGQGTLVTVSS VL: DIVLTQSPLSLPVTPGEPASISCRASESVEFYGTSFLQWYLQKPGQSPQLLIYGASNVESGVPDRFSGSGSGTDFTLKISRVEAEDIGVYFCQQSRKVPSTFGGGTKVEIK
Completion: 0.000125 s⁻¹

Prompt: Item under review: 393E9_hVH2_hVL5 (antibody, V domains shown, humanized) VH: EVQLVESGGGLIQPGGSLRLSCAASGFTFTDYYMSWVRQPPGKGLEWVGFIRNKGNGYTTENSASVKGRFTISRDNSKSTLYLQMNSLRAEDTAVYYCARYRGNPHYAMDYWGQGTLVTVSS VL: EIVLTQSPGTLSLSPGERATLSCRASESVEFYGTSFLQWYQQKPGQAPRLLIYGASNVESGIPDRFSGSGSGTDFTLTISRLEPEDIAVYFCQQSRKVPSTFGGGTKVEIK . Reported koff?
Completion: 0.000122 s⁻¹

Prompt: Requested read-out: koff. Entry: 393E9_hVH2_hVL4 (antibody, V domains shown, humanized) VH: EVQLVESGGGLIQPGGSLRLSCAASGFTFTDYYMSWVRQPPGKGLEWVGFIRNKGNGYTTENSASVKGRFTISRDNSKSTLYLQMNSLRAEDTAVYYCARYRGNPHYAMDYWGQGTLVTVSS VL: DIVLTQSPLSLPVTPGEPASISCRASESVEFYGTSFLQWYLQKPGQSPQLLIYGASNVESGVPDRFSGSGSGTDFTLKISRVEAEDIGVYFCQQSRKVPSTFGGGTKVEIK
Completion: 0.000127 s⁻¹

Prompt: Any idea what its koff is? The binder is 393E9_hVH4_hVL2 (antibody, V domains shown, humanized) VH: EVQLVESGGGLVQPGGSLRLSCAASGFTFTDYYMSWVRQAPGKGLEWVGFIRNKGNGYTTENSASVKGRFTISRDNSKSSLYLQMNSLKTEDTAVYYCARYRGNPHYAMDYWGQGTLVTVSS VL: EIVLTQSPATLSVSPGERATLSCRASESVEFYGTSFLQWYQQKPGQAPRLLIYGASNVESGIPARFSGSGSGTEFTLTISSLQSEDIAVYFCQQSRKVPSTFGGGTKVEIK
Completion: 0.000123 s⁻¹

Prompt: What measured koff goes with 393E9_hVH1_hVL4 (antibody, V domains shown, humanized) VH: EVQLVESGGGLVQPGGSLRLSCAASGFTFTDYYMSWVRQAPGKGLEWVGFIRNKGNGYTTENSASVKGRFTISRDNSKSTLYLQMNSLRAEDTAVYYCARYRGNPHYAMDYWGQGTLVTVSS VL: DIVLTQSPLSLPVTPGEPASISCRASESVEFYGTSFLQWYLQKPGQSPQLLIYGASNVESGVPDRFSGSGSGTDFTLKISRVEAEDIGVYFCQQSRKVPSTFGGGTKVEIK ?
Completion: 0.000119 s⁻¹

Prompt: Bench note: what koff did 393E9_hVH2_hVL1 (antibody, V domains shown, humanized) VH: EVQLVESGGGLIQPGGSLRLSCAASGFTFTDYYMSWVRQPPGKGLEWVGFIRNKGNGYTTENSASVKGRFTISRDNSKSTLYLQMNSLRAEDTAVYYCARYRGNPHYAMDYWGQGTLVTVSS VL: DIVLTQSPDSLAVSLGERATINCRASESVEFYGTSFLQWYQQKPGQPPKLLIYGASNVESGVPDRFSGSGSGTDFTLTISSLQAEDIAVYFCQQSRKVPSTFGGGTKVEIK show?
Completion: 0.000104 s⁻¹
